System: 3T3-L1
Assay: Induction of adipogenesis in mouse 3T3L1 cells assessed as decrease of leptin level at 10 uM after 24 hrs (reference value: 3089.21 +/- 33.37 pg/ml)
Assay type: functional
I'd be grateful if you could share measured Activity for these entries.
The response must be a number in pg/mL with no trailing unit.

Give the measured Activity of O=C(COc1ccc(C=C2C(=O)NC(=O)NC2=O)cc1)Nc1ccccc1 .
1856.32

Which Activity is listed for Cc1ccc(NC(=O)COc2ccc(C=C3C(=O)NC(=S)NC3=O)cc2)nc1 ?
1514.81

Which Activity value belongs to O=C(COc1ccc(C=C2C(=O)NC(=O)NC2=O)cc1)Nc1ccc(F)c(F)c1 ?
1571.98

Need Activity of CN(CCOc1ccc(CC2SC(=O)NC2=O)cc1)c1ccccn1 (stereo not given) , thanks.
1773.67

Activity for O=C(COc1ccc(C=C2C(=O)NC(=O)NC2=O)cc1)Nc1ccccn1 ?
1271.98
